# System: 786-0 renal
# EXPERIMENTAL_PROTOCOL: NCI tumour cell line growth inhibition, 48 h
REPORTED_METRIC: GI50

Some compounds with known GI50 results, for comparison:
COc1cc2c(cc1OCCCCCOc1cc(-c3ccc(F)cc3)nc(C)n1)N=C[C@@H]1CCCN1C2=O
> 44.9 µM
S=C(Nc1ccccc1)c1ccccn1
> 100 µM
OCCNc1nc(NCCO)nc(Nc2ccc(C3=NN(c4cc(Cl)cc(Cl)c4)C(c4ccc(Cl)cc4)C3)cc2)n1 (configuration not stated)
1.64 µM
COC(=O)c1c2c(c(C)[n+]([O-])c1C)C(=O)C=C(NCc1ccc(Cl)cc1)C2=O
1.32 µM
O=C(Oc1ccccc1)c1cc(O)c(O)c(O)c1
11.2 µM
CCCCCCN1C(=O)/C(=c2\sc3n(c2=O)C2C(NN=3)N(CC)C(=O)N2CC)c2ccccc21 (configuration not stated)
1.6 µM

GI50 for `O=c1cc/c(=N\Nc2ccccc2)c(=O)/c1=N/Nc1ccccc1` ?
> 50 µM

====

# Test system: CAKI-1 renal
# EXPERIMENTAL_PROTOCOL: NCI tumour cell line growth inhibition, 48 h
*1 amine or outer side, *2 acyl side, *3 side chain or, on linkers, in order; H or OH if unused. Where a SMILES comes first, the peptide text is derived from it. Bridges are numbered along the chain shown (N, C = ends). [ ]: non-standard residue; d: D form. ξ: configuration not given here. X4 = CCC(C)C(N[*:1])C(O)CC(=O)O[C@H](C(=O)C(C)C(=O)[*:2])C(C)C; NMeY = CN[C@@H](Cc1ccc(O)cc1)C(=O)O; X9 = O=C([C@@H]1CC(O)CN1[*:1])[*:2]; ξNMeL = CNC(CC(C)C)C(=O)O; ξT = CC(O)C(N)C(=O)O
REPORTED_METRIC: TGI

Required: TGI, one value per molecule below.
1. CCC(C)C1NC(=O)C(NC(=O)C(CC(C)C)N(C)C(=O)[C@@H]2CC(O)CN2)C(C)OC(=O)[C@H](Cc2ccc(OC)cc2)N(C)C(=O)[C@@H]2CCCN2C(=O)[C@H](CC(C)C)NC(=O)C(C)C(=O)[C@H](C(C)C)OC(=O)CC1O (some centres undefined) (H-[X9][ξNMeL][ξT][X4]LP[NMeY](Me); ester 3-C)
2. O=c1cc(-c2ccc(O)c(O)c2)oc2cc(OC3OC(CO)C(O)C(O)C3O)cc(O)c12 (centres undefined)
3. FC(F)(F)c1ccc2c(c1)N(CCCN1CCN(C3CC3)CC1)c1ccccc1S2
4. O=[N+]([O-])c1ccc(Cc2nc3ccccc3s2)cc1

1. 2.65 µM
2. > 100 µM
3. 16.1 µM
4. > 100 µM

====

# Tested on: MDA-MB-435
# EXPERIMENTAL_PROTOCOL: NCI tumour cell line growth inhibition, 48 h
REPORTED_METRIC: TGI

Study these solved cases before continuing.
CCN(CC)c1ccc(/C=C/C2=NN(c3cccc(S(=O)(=O)O)c3)C3(C2)C(Cl)C(=O)N3c2nc3ccccc3s2)cc1 (centres undefined)
17 µM
CC1(C)OC2C(CO)OC(n3ccc(=O)[nH]c3=O)C2O1 (centres undefined)
> 100 µM
Clc1cc(Cl)cc(N2N=C(c3cccc(Nc4ccncc4)c3)CC2c2ccccc2)c1 (centres undefined)
3.36 µM

# evaluate next
Look up TGI with MDA-MB-435 for this compound: O=C(Cc1ccccc1)N/N=C(/CCN1CCCC1)CC(c1ccccc1)c1c(O)c2ccccc2oc1=O (centres undefined)
> 100 µM
